Listed next: entries and their corresponding inhibition.
measuredTarget: L-lactate dehydrogenase (Plasmodium falciparum (isolate CDC / Honduras))
experimentSummary: PfLDH activity inhibition – cell lysate, 3D7 strain, counter-screen for P. falciparum growth inhibition project (AID 2304);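 further: 0% = vehicle and 100% = reference inhibitor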
runParameters: P. falciparum 3D7 crude extract, LDH APAD/NBT absorbance; at 2 µM; stronger effect = higher value
quantityKind: inhibition (%)

* COc1ccc(C2(CNCC(O)c3cccc([N+](=O)[O-])c3)CCCCC2)cc1OC (configuration not stated) | 3
* C#CCOc1ccc2ccccc2c1CNCCCCCCNCc1c(OCC#C)ccc2ccccc12 | -3
* COc1cc2c(cc1OCCN1CCC(N3CCCCC3)CC1)N(C(=O)/C=C/c1ccccc1Cl)CC2 | -1
* O=C(Nc1cccc(-c2ccc(-c3nc4ccc(C(F)(F)F)cc4[nH]3)cc2)c1)Nc1ccc(Cl)c(Cl)c1 | -2
* Cc1nc(SCC(=O)N2CCCC2=O)c2c(C)c(C)sc2n1 | 2
* COc1ccc(CCN(C)CCCOc2ccc(NC(=O)c3cccc4c(=O)c5ccccc5[nH]c34)cc2)cc1OC | 1
* Cc1cccc(CN2CCCC3(CCN(Cc4ccccc4O)C3)C2)c1 (configuration not stated) | -3

----------
experimentSummary: inhibition of 3D7 malaria parasite growth – strain 3D7 (AID 2306);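 further: 0% = DMSO wells and 100% = chloroquine plus artemisinin control wells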
runParameters: P. falciparum 3D7 erythrocytic growth, LDH absorbance, 72 h; at 2 µM; stronger effect = higher value
# if value of growth inhibition reaches 90%, tag satisfied; if it stays below, tag not satisfied

* Cc1noc(C)c1-c1cccc(CNCc2cccc(-c3cccc(-c4nc5c(C)cccc5[nH]4)c3)c2)c1 | satisfied
* O=C(Nc1ccc(F)c(F)c1)c1ccc(CN2CCCN(Cc3cccc(F)c3)CC2)cc1 | not satisfied
* O=C(Nc1ccc(-c2cccc(-c3nc4ccc(F)cc4[nH]3)c2)cc1)c1cnn2cccnc12 | satisfied
* Cc1cc(CNC(=O)c2ccc(-c3ccc(-c4nc5ccc(C(F)(F)F)cc5[nH]4)s3)cc2)on1 | satisfied
* CC(OC(=O)c1ccc(C(=O)NCC2CC2)cc1)C(C)(C)C (stereo unspecified) | satisfied
* COc1ccc(Cn2c(=O)[nH]c3cc(C(=O)NC4CCN(Cc5ccccc5)CC4)ccc3c2=O)cc1 | satisfied

----------
experimentSummary: inhibition of 3D7 malaria parasite growth – strain 3D7 (AID 2306);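 further: 0% = DMSO wells and 100% = chloroquine plus artemisinin control wells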
runParameters: P. falciparum 3D7 erythrocytic growth, LDH absorbance, 72 h; at 2 µM; stronger effect = higher value
Listed next: entries and their corresponding growth inhibition.
quantityKind: growth inhibition (%)

- CN(C)c1ccc(-c2csc(C(=O)NCC3CCN(CCC(C)(C)C)C3)c2)cc1 (stereo not drawn): 87
- CCS[C@@H]1O[C@H](COC(=O)c2ccccc2)[C@H](OC(=O)c2ccccc2)[C@H](OC(=O)c2ccccc2)[C@H]1OC(=O)c1ccccc1: 98
- Cc1onc(-c2ccccc2)c1C(=O)Nc1nc(-c2ccccn2)nc2ccsc12: 97
- OC(CNCc1ccccc1OCc1ccccc1)c1cccc(Cl)c1 (stereo not drawn): 100
- COc1ccc(F)cc1-c1cccc(CNC2CCN(CC3Cn4c(=O)ccc5ccc(F)c3c54)CC2)c1 (stereo not drawn): 100
- CN1CCC(NCc2ccc(-c3ccc(S(=O)(=O)NCc4ccccc4)cc3)cc2)CC1: 99
- Cn1c(NC(=O)c2ccc(CNC(=O)c3ccc(O)c(-c4ccc(Cl)c(Cl)c4)c3)cc2)nc2ccccc21: 94
- CCOc1ccc(CCC(=O)O)cc1OCC: 94
- O=C(O)CNCC(O)c1ccccc1 (stereo not drawn): 96
- COc1ccc2ncc(F)c([C@@H](O)CN3CCC(NCc4cc5c(cn4)OCS5)CC3)c2c1: 103
- CN1CCN(CC(=O)Nc2ccc(-c3cccc(-c4nc5ccc(C(F)(F)F)cc5[nH]4)c3)cc2)CC1: 101
- N#Cc1ccc(NC(=O)NC2CCN(CCCCCNC(=O)/C=C/c3ccc(Cl)c(Cl)c3)CC2)cc1: 98
- O=C(/C=C/c1ccc(Cl)cc1)NCCCCCN1CCCC(C(=O)Nc2ccc(F)c(Cl)c2)C1 (stereo not drawn): 94
- COC(=O)Nc1ccc(-c2ccc(C(=O)NC3CCN(C[C@H](O)c4ccnc5ccc(OC)cc45)CC3)cc2)c(C)c1: 100
- CCn1cc(C=C2Oc3c(ccc(O)c3CN3CCCCC3)C2=O)c2cc(OC)ccc21: 99
- CN1CCC(NCc2ccc(-c3cccc(-c4nc5ccccc5[nH]4)c3)cc2)CC1: 100
- Cc1ccc(Cn2ncc(N3CCNCC3)c(Cl)c2=O)cc1NC(=O)Nc1ccc(-c2ccccc2)cc1: 90
- COc1ccc2nccc([C@@H](O)CN3CCC(NCc4ccc5c(c4)sc(=O)n5C)CC3)c2c1: 100
- O=C(Nc1cccc(-c2ccc(-c3nc4ccccc4[nH]3)s2)c1)c1ccncc1: 92
- Cc1cccc(CN2CCCN(Cc3cccc(C(=O)Nc4ccc(C(C)(C)C)cc4)c3)CC2)c1: 89
- CO/C(=C\C=C\c1cc2cc(Cl)c(Cl)cc2[nH]1)C(=O)NCCCN1CC(C)N(C)CC1C (stereo not drawn): 92
- CCNc1cc(C(=O)N[C@@H](Cc2ccccc2)[C@H](O)CNC(C)(C)Cc2ccccc2)cc(N2CCCC2=O)c1: 99
- COc1ccccc1NC(=O)Nc1ccc(-c2ccc(-c3nc4c(C)cccc4[nH]3)s2)cc1: 100

----------
Listed next: entries and their corresponding growth inhibition.
experimentSummary: antimalarial activity against Dd2 strain (AID 2302);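 further: 0% = DMSO untreated growth and 100% = chloroquine plus artemisinin killed control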
runParameters: P. falciparum Dd2 in RBCs, LDH growth readout, 72 h; at 2 µM; stronger effect = higher value
quantityKind: growth inhibition (%)

* Cc1ccc(NC(=O)N2CCCN(CCCCCNC(=O)/C=C/c3ccc(Cl)c(Cl)c3)CC2)cc1C | 4
* CCN(CC)CC(O)c1cc(-c2ccc(OC)cc2)nc2cc(Cl)ccc12 (stereo unspecified) | 98
* CCN(CCCN1CCCC1)c1cc(C)nc(Nc2ccc(Cl)cc2)n1 | 12
* COc1ccc(CN2CCCN(Cc3cccc(C(=O)Nc4ccc(C(C)(C)C)cc4)c3)CC2)cc1 | 3
* CS(=O)(=O)c1ccc(CNCc2ccc(-c3cccc(-c4nc5ccc(C(F)(F)F)cc5[nH]4)c3)cc2)cc1 | 100
* CNC(=O)C1Cc2c([nH]c3cc(Cl)ccc23)C2(CCN(CCc3ccccc3)CC2)N1 (stereo unspecified) | 3

----------
experimentSummary: antimalarial activity against Dd2 strain (AID 2302);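 further: 0% = DMSO untreated growth and 100% = chloroquine plus artemisinin killed control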
runParameters: P. falciparum Dd2 in RBCs, LDH growth readout, 72 h; at 2 µM; stronger effect = higher value
quantityKind: growth inhibition (%)

* CS(=O)(=O)c1ccc(CCNCc2ccc(-c3cccc(-c4nc5ccccc5[nH]4)c3)cc2)cc1 | 99
* CCOC(=O)C(CO)NC(=O)c1ccc([N+](=O)[O-])o1 (centres undefined) | 2
* NC(N)=Nc1ccc(C(=O)O)c(O)c1 | 1
* CN(C)Cc1ccc(-c2ccc3c(Nc4ccc(Oc5ccccc5)cc4)ccnc3c2)o1 | 100
* CCc1ccc(CN2CCC(CNC(=O)c3cc(-c4ccccc4F)cs3)C2)cc1 (centres undefined) | 3
* COc1ccccc1-n1ccnc1SCC(=O)Nc1cc(C(F)(F)F)ccc1Cl | 97
* N#Cc1ccc2c(c1)CN(C1CCC(NC(=O)C3=Cc4cc(Cl)ccc4OC3)CC1)CCC2 (centres undefined) | 8
* Cc1cccc2[nH]c(-c3ccc(-c4ccc(CNCC(C)C)cc4)cc3)nc12 | 90
* CN(N=Cc1ccccc1)C(N)=NCCCC#Cc1cccc(CN2CCCC2)c1 | 3
* CC1CCC(NCc2c(O)ccc3ccccc23)CC1 (centres undefined) | 77
* COc1ccc(Cc2c(C)nc3nc(N)nc(N)c3c2C)cc1OC | -4
* CCN(C)CCCn1c(N(C)C)nc2cc(-n3cnc4cc(-c5ccc(Cl)cc5)sc4c3=O)ccc21 | 12
* c1ccc(-c2nc(NCCCn3ccnc3)cc(-c3ccncc3)n2)cc1 | 100
* Cc1ccccc1C1CCN(C2CCC(NC(=O)c3cc(-c4ccc(Cl)cc4)cs3)CC2)CC1 (centres undefined) | 100

----------
experimentSummary: human hepatoma cell viability loss – ATP luminescence, cytotoxicity control for P. falciparum antimalarial project, primary screen (AID 2303);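 further: 0% = DMSO wells and 100% = digitonin-killed cells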
runParameters: HepG2 viability, 24-48 h, at 10 µM, stronger effect = higher value
Listed next: entries and their corresponding inhibition.
quantityKind: inhibition (%)

* CCc1cc2c(=O)c(-c3nc(C)cs3)c(N)oc2c(CN2CCCCC2)c1O | -2
* COc1cc(CN2CCC(NC(=O)[C@H](Cc3ccccc3)NC(=O)Nc3ccc(Oc4ccccc4)cc3)C2)ccc1O (stereo partly drawn) | 10
* Cc1c(NCCCNCc2cc(Cl)cc(Cl)c2Cl)[nH]c2ccccc2c1=O | 35
* CCCCCCCCc1c(C)[nH]c(C)c(I)c1=O | 5
* O=C(N[C@H]1CCN(Cc2ccc(OCCCN3CCCCC3)cc2)C1)c1ccc(Oc2ccccc2)cc1 | 56
* C(=NNc1cc(-c2ccccc2)nc2ccccc12)c1cccnc1 | 23
* CCn1c(-c2nonc2N)nc2cnc(Oc3cccc(NC(=O)c4ccc(OCCN5CCCC5)cc4)c3)cc21 | 25
* O=C(c1cc(-c2cccs2)[nH]n1)N1CCN(S(=O)(=O)c2ccc(Br)cc2)CC1 | -6
* Cc1ccccc1-c1nc2c(CN3CCC(O)(c4ccccc4)CC3)c(O)ccc2[nH]1 | 27
* Cc1cc(N2CCCC2)nc(Nc2ccc(NC(=O)c3cccc(F)c3)cc2)n1 | 39
* CSc1ccc(CN2CCC(NC(=O)c3ccc(-c4cccc(Cl)c4)s3)CC2)cc1 | 75
* N#Cc1cccc([C@H](O)[C@@H]2CN(CCC3CCCCC3)CC[C@@]2(O)c2ccccc2)c1 | -5
* COc1ccc(CNc2cc(C)nc3sc4c(c23)CCC2(C4)OCCO2)cc1 | 4
* CCN(CC)CC#Cc1ccc2[nH]c(C)c(Cl)c(=O)c2c1 | 11
* CS(=O)(=O)c1ccc(CCNCc2ccc(-c3cccc(-c4nc5ccccc5[nH]4)c3)cc2)cc1 | 40
* O=C(Nc1ccnc(N2CCCN(Cc3cccc(O)c3)CC2)c1)c1ccc(F)cc1 | 12
* NC(N)=Nc1ccc(Cc2ccc(N=C(N)N)cc2)cc1 | 35
* Cn1cc(CN2CCCC(COC(c3ccccc3)c3ccccc3)C2)cn1 (stereo not drawn) | 24
* CCOc1ccc(C2CCN(CCCCNC(=O)c3ccc(NC(=O)c4ccc(Cl)cc4)cc3)CC2)c(OCC)c1 | 14
* Cc1ccc(C2CCN(CCCCNC(=O)c3ccc(NC(=O)c4ccc(Cl)cc4)cc3)CC2)c(C)c1 | 23
* O=C(Nc1ccc(Cl)c(Cl)c1)N(Cc1ccccc1Br)C1CCNCC1 | 13
* COc1ccc(NC(=O)N2CCCN(CCCCCNC(=O)/C=C/c3ccc(Cl)cc3)CC2)cc1Cl | 15
* CN1CCC(N2CCN(Cc3ccc(-c4ccc(-c5nc6ccc(F)cc6[nH]5)s4)cc3)CC2)CC1 | 62
